Field IC50: reported value for PIK3CD (Human) (UniProt O00329); entries drawn from several documents.
endpointName: IC50 (nM)

1. O=C(CS(=O)(=O)c1ccccc1)N[C@H]1CC[C@H](Nc2nc(N3CCOCC3)cc(-n3c(C(F)F)nc4ccccc43)n2)CC1 : 3.4
2. CC1(C)CNCc2cc(Nc3ncc4cc(C#N)c(=O)n(C5CCCC5)c4n3)ccc21 : 2460
3. C=CC(=O)Nc1cccc(NS(=O)(=O)c2cccc(Nc3ncc4c(n3)N(C)c3ccc(C)cc3C(=O)N4C)c2)c1 : 328

====

pIC50: −log10 of the molar value.
Note to self: these compounds have pIC50 reported for PIK3CD (Human) (UniProt O00329) in various publications.
endpointName: pIC50

1) Cc1cccc(C)c1-n1c(CNc2ncnc3[nH]cnc23)cc2cccc(C)c2c1=O : > 7.00
2) C[C@H](NC(=O)c1c(N)ncc2ccccc12)c1cc2cccc(Cl)c2c(=O)n1-c1ccccc1 : < 5.00
3) CC(C)N1CCC(Oc2nc([C@H](C)Nc3ncnc4cccnc34)cc3cccc(Cl)c23)CC1 : > 7.00
4) C[C@H]1OC(=O)N(c2cc(-c3cnc(N)nc3C(F)(F)F)nc(N3CCOCC3)n2)[C@H]1COC=O : 7.23
5) Cc1ccccc1-n1c(Cn2nc(-c3ccc(F)c(O)c3)c3c(N)ncnc32)cc2cccc(F)c2c1=O : > 7.00
6) CCOc1ccc(-c2nn(C3Cc4ccccc4C3)c3ncnc(N)c23)cc1OC : 7.19
7) Cc1ccn2ncc(C(=O)N[C@@H](C)c3cc4cccc(Cl)c4c(=O)n3-c3ccccc3)c2n1 : 5.00 to 6.00
8) C[C@@H]1CN(C(=O)c2nc([C@H](C)Nc3ncnc4[nH]cnc34)cc3cccc(Cl)c23)CCN1 : > 7.00

====

Listed below are compounds with pIC50 for PIK3CD (Human), each taken from published literature.
pIC50: −log10 of the molar value.
endpointName: pIC50

1. Nc1ncnc2c1c(-c1ccc(Cl)c(O)c1)cn2C1Cc2ccccc2C1 : 7.67
2. CCOCCN(C)[C@H]1CC[C@H](CNc2nc(N3CCOCC3)cc(-n3c(C(F)F)nc4ccccc43)n2)CC1 : 7.64
3. CC(=O)N1CCC(n2nc(-c3cc4cc(O)ccc4[nH]3)c3c(N)ncnc32)CC1 : 5.01
4. COc1ncc(-c2nc(N3CCOCC3)c3sc(CN4CCC(N(C)C(C)C)CC4)c(C)c3n2)cc1NS(C)(=O)=O : 7.82

====

pIC50: −log10 of the molar value.
Collected pIC50 for PIK3CD (Human) across several studies; compounds listed below.
endpointName: pIC50

1. COc1ncc(-c2nc(N3CCOCC3)nc3c(CN4CCC(OC)CC4)cccc23)cc1NS(C)(=O)=O : 7.77
2. CC(C)n1nc(-c2cc3cccc(O)c3[nH]2)c2c(N)ncnc21 : 6.48
3. Nc1ncc(-c2cc(N3C(=O)O[C@H]4CCCC[C@@H]43)nc(N3CCOCC3)n2)c(C(F)(F)F)n1 : 8.40
4. N#Cc1cc2cnc(Nc3ccc(N4CCNCC4)c(C(F)(F)F)c3)nc2n(C2CCCC2)c1=O : 5.78

====

Several reports have described pIC50 for PIK3CD (Human) (UniProt O00329); a selection of those results is presented here.
pIC50: −log10 of the molar value.
endpointName: pIC50

1. Cc1ccnc2cc(Cn3nc(-c4cc(O)cc(F)c4)c4c(N)ncnc43)n(-c3ccccc3F)c(=O)c12 : > 7.00
2. COc1ncc(-c2nc(N3CCOCC3)nc3c(CN4CCC(N5CCCC5)CC4)c(C)sc23)cc1NS(C)(=O)=O : 8.12
3. Nc1ncnc2c1c(-c1cn[nH]c1)nn2Cc1cc2cccc(F)c2c(=O)n1-c1ccccc1F : > 6.00
4. C[C@H](NC(=O)c1c(N)nn2cccnc12)c1cc2cccc(F)c2c(=O)n1-c1ccccc1 : 6.00 to 7.00
